Tested on: HBV rtE218G mutant strain
Assay: Drug sensitivity test: HepG2 cells transiently transfected with rtE218G mutagenic HBV plasmid, intracellular replication intermediates by Southern blotting
Assay type: cell-based, hepatitis B virus
Settings: Hepatitis B virus, 168 h; HepG2 cells, HBV replication intermediates in cytoplasm, Southern blotting gray values, treated 7 days; read-out: half maximal inhibitory concentration (IC50) for the rtE218G mutant strain
Readout Type: pIC50
Interpret pIC50 as the negative base-10 log of the concentration measured in mol/L.

Ask: GET /values?readout=pIC50&system=HBV rtE218G mutant strain&item= Nc1ncnc2c1ncn2CCOCP(=O)(O)O
Reply: 5.03
